assayed_target: T1, FCHO1 μHD S732D (Homo sapiens)
T1 chain: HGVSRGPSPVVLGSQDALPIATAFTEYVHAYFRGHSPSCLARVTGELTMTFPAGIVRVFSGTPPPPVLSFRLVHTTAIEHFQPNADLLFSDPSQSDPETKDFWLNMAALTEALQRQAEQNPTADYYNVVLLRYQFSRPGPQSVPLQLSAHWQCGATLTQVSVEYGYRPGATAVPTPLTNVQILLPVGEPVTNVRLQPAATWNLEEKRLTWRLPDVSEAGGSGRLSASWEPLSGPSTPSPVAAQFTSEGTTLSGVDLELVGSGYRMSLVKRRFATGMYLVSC
assay_remarks: ITC
pKd: −log10 of the molar value.
measurement_type: pKd

[
  {
    "binder": "NLDFFQSDPFVGSDPFKDDPFGK [EPS15 616–638 peptide]",
    "measurement_type": "pKd",
    "observed_result": 5.04
  }
]
